Exercise: for every item that follows, state its recorded LACTATE DEHYDROGENASE.
- Species on record: Rattus norvegicus
- PROTOCOL_TEXT: DrugMatrix - Regimen: Daily Repeat
- Assay type: toxicity, organism-based, Sprague-Dawley
- Parameters: regimen Daily Repeat, gender Male, age 6-8 weeks
- COND: in vivo, po, 0 mg/kg, 72 h, tissue Plasma, route oral GAVAGE, dose level Control, time 3 day, […]
Please respond with the number in u/L and leave the unit unwritten.

Ask | Fill blank: measured LACTATE DEHYDROGENASE of the molecule CC/C(=C(/CC)c1ccc(O)cc1)c1ccc(O)cc1 is ____.
Reply | 81.17

Ask | Same lookup for CCOC(=O)C(C)(C)Oc1ccc(Cl)cc1 [CLOFIBRATE] , please.
Reply | 75.83

Ask | Same lookup for COc1ccc2[nH]c([S+]([O-])Cc3ncc(C)c(OC)c3C)nc2c1 (stereo not given) , please.
Reply | 89.33

Ask | Same lookup for S=C=Nc1cccc2ccccc12 [1-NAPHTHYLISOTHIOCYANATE] , please.
Reply | 107.5

Ask | Same lookup for CCCCCCCCc1ccc(O)cc1 , please.
Reply | 198.5

Ask | Same lookup for O=C(O)Cc1ccccc1Nc1c(Cl)cccc1Cl , please.
Reply | 130.33

Ask | Same lookup for CC(=O)Nc1cccc(O)c1 , please.
Reply | 484.67

Ask | Same lookup for CC(=O)Nc1ccc(O)cc1 , please.
Reply | 85

Ask | Same lookup for CC(C)(Oc1ccc(C2CCCc3ccccc32)cc1)C(=O)O (stereo not given) , please.
Reply | 343.5

Ask | Same lookup for CCOC(=O)C1=C(C)NC(C)=C(C(=O)OC)C1c1cccc([N+](=O)[O-])c1 (stereo not given) , please.
Reply | 139.33

Each recorded value in this set is attributed to ChEMBL document CHEMBL3885881.
